Values compiled from patent US9328106B2.

- tested on: PIM1 (Homo sapiens (Human))
- Sequence (P11309 whole entry): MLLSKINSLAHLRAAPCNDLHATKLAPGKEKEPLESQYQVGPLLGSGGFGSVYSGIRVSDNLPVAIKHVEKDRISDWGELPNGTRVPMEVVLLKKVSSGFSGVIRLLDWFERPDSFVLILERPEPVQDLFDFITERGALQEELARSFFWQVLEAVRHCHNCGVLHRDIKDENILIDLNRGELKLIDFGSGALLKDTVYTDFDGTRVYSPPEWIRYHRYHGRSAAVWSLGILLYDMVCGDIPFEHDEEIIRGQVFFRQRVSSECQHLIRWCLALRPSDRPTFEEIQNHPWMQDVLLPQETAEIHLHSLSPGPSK
- method summary: biochemical
- Assay type: biochemical
- details: 20 pM PIM1, 1 μM FAM-peptide, 10 μM ATP, 90 minutes at room temperature; read-out: PIM1 LC3K (KI)
Threshold 0.1 nM. Ki below it: TRUE. Ki at it or above: FALSE.

Cn1ncc(NC(=O)c2nc(-c3c(F)cccc3F)sc2N)c1[C@@H]1C[C@@H](N)[C@@H](F)CCO1 (stereo in doubt) = FALSE
Cn1ncc(NC(=O)c2csc(-c3c(F)cncc3F)n2)c1[C@@H]1CC[C@@H](N)[C@@H](F)CO1 = FALSE
Cn1ncc(NC(=O)c2csc(-c3c(F)cccc3F)n2)c1[C@@H]1CC[C@@H](N)[C@H](O)CO1 = FALSE
Cn1ncc(NC(=O)c2csc(-c3ccc(F)cc3F)n2)c1[C@@H]1CC[C@@H](N)[C@H](F)CO1 = TRUE
Cn1ncc(NC(=O)c2csc(-c3cc(=O)n(C)cc3F)n2)c1[C@@H]1CC[C@@H](N)[C@H](F)CO1 = FALSE
CO[C@H]1CO[C@H](c2c(NC(=O)c3nc(-c4cc(Cl)ccc4F)sc3N)cnn2C)CC[C@H]1N = TRUE
CC[C@]1(CO)CO[C@H](c2c(NC(=O)c3nc(-c4c(F)cccc4F)sc3N)cnn2C)OC1 = TRUE
